Origin of values: patent US20120177742A1

# Protocol Summary: in vivo
# Condition Details: rabbit, iliac artery wall, other: coated balloon catheter deployed in iliac arteries
Quantity Kind: concentration at 0 h
Answer by giving the amount and then stating its unit.

Requested field: concentration at 0 h. Item: `CO[C@H]1C[C@@H]2CC[C@@H](C)[C@@](O)(O2)C(=O)C(=O)N2CCCC[C@H]2C(=O)O[C@H]([C@H](C)C[C@@H]2CC[C@@H](O)[C@H](OC)C2)CC(=O)[C@H](C)/C=C(\C)[C@@H](O)[C@@H](OC)C(=O)[C@H](C)C[C@H](C)/C=C/C=C/C=C/1C` 197000 ng/g
